Value source: PubChem BioAssay (NCI)

# ASSAY_NOTES: NCI Yeast Anticancer Drug Screen. Data for the mec2-1 strain (AID 157)
# CONDITION_SUMMARY: S. cerevisiae mec2-1 strain, at 50.0 µM (retest, dose inferred, filed as 5.0), stronger effect = higher value
Compounds without any hit were thinned out: in the full panel of roughly 79,000, 15% have a hit.
Item-by-item account of growth inhibition
Report as a plain number; the unit % is understood.

Example entries and their recorded answers appear below.
COMPOUND | VALUE_UNIT | MEASURED_NUMBER
CC1(C)CCC2(C(=O)O)CCC3(C)C(=CCC4C5(C)CC(O)C(O)C(C)(C(=O)O)C5CCC43C)C2C1 (stereo not drawn) | % | 99
Clc1sc2ccccc2c1Cl | % | -3
Cc1cc(NC(=S)SCc2ccc(Cl)cc2)ccc1F | % | 70

**Q:** Suppose we examine the compound O=C(CCN1CCOCC1)c1ccc(Oc2ccc(F)cc2)cc1 ; what growth inhibition value has been reported?
**A:** 95

**Q:** Here is the next compound: COc1ccc(/C(Cl)=C(\C=O)c2ccc(Cl)c(Cl)c2)cc1
**A:** 70

**Q:** Here is the next compound: Cc1cc(Cc2ccccc2Cl)ccc1O
**A:** 100

**Q:** Here is the next compound: CCOc1ccc(/C=C\c2ccnc3ccccc23)cc1OCC
**A:** 99

**Q:** Here is the next compound: COC12C(COC(N)=O)C3=C(C(=O)C(C)=C(N)C3=O)N1CC1C2N1C(=O)c1ccc(Cl)c(Cl)c1 (stereo not drawn)
**A:** 96

**Q:** Here is the next compound: CC(C)N1C(=O)C=CC1=O
**A:** 60

**Q:** Here is the next compound: Cc1ccc(N=Nc2sc(N)nc2C)cc1C
**A:** -30

**Q:** Here is the next compound: COc1cc(/C=C/C(=O)c2ccc3ccccc3c2)cc(OC)c1OC
**A:** 44

**Q:** Here is the next compound: O=[N+]([O-])c1ccc(/C=N/NC2=CS(=O)(=O)C=C2)cc1
**A:** 0

**Q:** Here is the next compound: O=C(SC(O)c1ccc(Cl)cc1)c1ccccc1 (stereo not drawn)
**A:** 57

**Q:** Here is the next compound: Cc1cccc(CC(C)(C)C)c1NC(=O)C(=O)C(C(=O)c1ccc2ccccc2c1)C1OC(=O)c2ccccc21 (stereo not drawn)
**A:** 92

###

# ASSAY_NOTES: NCI Yeast Anticancer Drug Screen. Data for the rad50 strain (AID 155);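 also: 0% = growth of vehicle-only cultures of the same strain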
# CONDITION_SUMMARY: S. cerevisiae rad50 strain growth inhibition; at 50.0 µM; stronger effect = higher value
Compounds without any hit were thinned out: in the full panel of roughly 79,000, 15% have a hit.
We use 90% as the dividing line for growth inhibition: on or above the line is label 1, below is label 0.

**Q:** Answer whether growth inhibition of NC(N)=NC(N)=Nc1ccc(-c2ccccc2)cc1 is greater than or equal to 90%.
**A:** label 0

###

# ASSAY_NOTES: NCI Yeast Anticancer Drug Screen. Data for the sgs1 mgt1 strain (AID 161);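 also: 0% = growth of cultures given vehicle only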
# CONDITION_SUMMARY: S. cerevisiae sgs1 mgt1 strain, at 5.0 µM (retest, dose inferred, filed as 0.5), stronger effect = higher value
This is part of a sample that, as a whole, favours compounds with a hit. Of some 79,000 tested, about 15% had one in any assay. Active and inactive are the calls of the source. Rule as the data show it: active = growth inhibition above about 70%; inactive = the rest.
PROPERTY_NAME: growth inhibition

Example entries and their recorded answers appear below.
COMPOUND | PROPERTY_NAME | RESULT
O=c1oc(-c2ccccc2)nc2ccccc12 | growth inhibition | 0% (inactive)
CC(=O)OC1C(O)C(C)OC(OC(=O)C2CCC3C(C2)OC2(CC(OC(=O)/C=C/c4ccccc4)C(C)CO2)C32CO2)C1OC1OC(C)C(O)C(O)C1O (stereo not given) | growth inhibition | 26% (inactive)
O=C(N/C(=C\c1ccc(Cl)cc1)c1nc2ccccc2s1)c1ccccc1 | growth inhibition | 54% (inactive)
CN1CCN(CCn2c3c4ccccc4ccc3c3oc(=O)c4ccccc4c32)CC1 | growth inhibition | 28% (inactive)

**Q:** Suppose we examine the compound O=C1/C(=C/c2cccc(O)c2)SC(=S)N1/C=C\c1nc2ccccc2[nH]c1=O ; what growth inhibition value has been reported?
**A:** -4% (inactive)
